Sourced from ChEMBL document CHEMBL1201862

# Test system: OVCAR-8
# Run Description: NCI tumour cell line growth inhibition, 48 h
The source made the active and inactive calls. Rule as the data show it: active = GI50 up to about 1.1 µM and inactive = higher.
Permitted responses: 1.0 for active, 0.0 for inactive

Solved cases below.
CCC(=O)Nc1ccc(NC(C#N)c2cccc(Oc3ccccc3)c2)cc1 (stereo unspecified) :: 0.0
Nc1sc2c(c1C(=O)c1ccc(Cl)c(Cl)c1)CCCC2 :: 0.0
CCOC(=O)NC(Nc1ccc(C(=O)OCC)cc1)(C(F)(F)F)C(F)(F)F :: 0.0
O=C(O)C1(Cc2ccccc2)Cc2ccccc2C1 :: 0.0
COc1cc(C2c3cc4c(cc3[C@@H](NC3CCN(Cc5ccccc5)CC3)C3COC(=O)[C@H]23)OCO4)cc(OC)c1O (stereo partly specified) :: 1.0
CCOC(=O)Cc1ccc(Nc2nc3cc(C(F)(F)F)ccc3nc2C(=O)OCC)cc1 :: 0.0
COC(=O)C1=C(C)C(=O)[C@]23C(CCCC[C@H]12)C(=O)[C@H](C(=O)OC)C3C (stereo partly specified) :: 0.0
O=C(O)c1ccc(NC(=O)C2C(=O)C(=O)N(c3ccc(C(=O)O)cc3)C2=O)cc1 (stereo unspecified) :: 0.0
CC1(C)CCOC(Sc2ccccc2)C1 (stereo unspecified) :: 0.0
N=C(N)n1ncc(Cl)c(Cl)c1=O :: 0.0

From here, focus on the item given below.
Req: Please let me know the test result on file for Sc1ncnc2nc[nH]c12 [MERCAPTOPURINE ANHYDROUS] .
Resp: 0.0

* * *

# Test system: SK-MEL-28
# Run Description: NCI tumour cell line growth inhibition, 48 h
Calls of active or inactive are those of the source. No stated cut-off is given here; in the data, active = GI50 up to about 1.1 µM and inactive = higher. Where a SMILES comes first, the peptide text is derived from it. The star is where a group is joined. Boc = CC(C)(C)OC(=O)*
# output must be one of active, inactive

COc1cc(C2=C(C#N)C(N)OC3=C2COc2ccccc23)cc(OC)c1OC (stereo not drawn) :: inactive

Req: I'd appreciate the recorded outcome for O=C(Nc1sccc1S(=O)(=O)c1ccc(Cl)cc1)c1ccc(Cl)cc1Cl from this test.
Resp: inactive

Req: Now consider COc1ccc(/N=N/c2ccc3oc(=O)c(C(=O)Nc4ccccc4C)cc3c2)cc1 .
Resp: inactive

Req: Now the compound CCOC(=O)C(CC(C)C)NC(=O)C(Cc1ccccc1)NC(=O)CNC(=O)OC(C)(C)C (stereo not drawn) (Boc-Gly-Phe-Leu-OEt; configuration not given here)
Resp: inactive

Req: # repeat for OC1CCC(COC(c2ccccc2)(c2ccccc2)c2ccccc2)O1 (stereo not drawn)
Resp: inactive

Req: Thanks! And CCOC(=O)/C(=C\NC(=S)Nc1ccc(Cl)c(Cl)c1)C(=O)c1ccccc1 ?
Resp: inactive

* * *

# Tested on: HT-29
# Run Description: NCI tumour cell line growth inhibition, 48 h
Active and inactive are the calls of the source. No stated cut-off is given here; in the data, active = GI50 up to about 1.1 µM and inactive = higher.
Observation Type: GI50

N#CC(C(=O)CCC(=O)C(C#N)c1ccccc1)c1ccccc1 (stereo unspecified) :: > 100 µM (inactive)
Brc1ccc(N2C[N+](c3ccc(Br)cc3)=NC(c3ccccc3)=N2)cc1 :: 14.1 µM (inactive)
COc1ccc(C[N+](C)(C)N)cc1OC :: > 10 µM (inactive)

Please look at the items below and tell me GI50 for each one, in order.
1. OC1(c2ccccc2)CC2CCC(C1)N2CCCC1(c2ccc(F)cc2)OCCO1 (stereo unspecified)
2. C=CCc1c(O)c2ccccc2[nH]c1=O

Resp:
["36.5 µM (inactive)", "> 100 µM (inactive)"]

Req: Name the reported GI50 value associated with the compound Nc1sc2c(c1C(=O)c1ccc(Cl)c(Cl)c1)CCCC2
Resp: 36.4 µM (inactive)

* * *

For each entry below, report its GI50 value.
# System: NCI-H460
# Run Description: NCI tumour cell line growth inhibition, 48 h
Active and inactive are the calls of the source. No stated cut-off is given here; in the data, active = GI50 up to about 1.1 µM and inactive = higher.

CN(C)CCCNC(=O)c1cc(NS(=O)(=O)c2ccc3c(c2)C(=O)c2ccccc2C3=O)cn1C :: 18.8 µM (inactive)
NC(=O)ON=C1CCN(Cc2ccccc2)CC1 :: > 100 µM (inactive)
Oc1ccc(Br)cc1/C=N/c1cccc(C(F)(F)F)c1 :: > 100 µM (inactive)
Cc1cc(Cl)cc2c1NC(=O)C2(O)CC(=O)c1ccco1 (stereo not given) :: > 100 µM (inactive)

Attention now turns to another entry.
Req: I'd like to know its GI50. The compound in question is CCOC(=O)c1[nH]cc(C)c1-c1ccn(-c2ccccc2)c1
Resp: 38.6 µM (inactive)

* * *

Assignment: determine reported GI50 for the given molecules.
# Tested on: RXF 393
# Run Description: NCI tumour cell line growth inhibition, 48 h
Active and inactive are the calls of the source. Cut-off read from the data, not from the text of the source: active = GI50 up to about 1.1 µM and inactive = higher.

O=C(CN(c1ccccc1)c1ccccc1)N1c2ccccc2C2C=CC=CC21 (stereo unspecified) :: 30.5 µM (inactive)
COc1cc(C2SCC(=O)N2c2ccc(Cl)c(Cl)c2)cc(OC)c1OC (stereo unspecified) :: 18.5 µM (inactive)
S=C1SC(=N\c2ccccc2)/C(=N/c2ccccc2)N1c1ccc2ccccc2c1 :: 7.26 µM (inactive)
C[N+]1=C(c2cccnc2/C=N/O)OCC1(C)C :: > 100 µM (inactive)
CSC(SC)=C(C(=O)c1ccc(Cl)cc1)n1c(=O)sc2cc(Br)ccc21 :: > 100 µM (inactive)

State the recorded GI50 for every item in the following list.
1. C/C(=N\N=C(/[SeH])N1CC2CCC(CC2)C1)c1ccccn1
2. NC(=O)C(=Cn1c(=S)[nH]c2ccc([N+](=O)[O-])cc21)C(N)=O
3. CC(C)OP(=O)(OC(C)C)/C(C#N)=C/c1c[nH]c2ccccc12
4. O=C1SC(SCc2ccccc2)=NC12CC2c1ccccc1 (stereo unspecified)
5. COc1ccc(Nc2nc3ccccc3nc2-c2cccs2)cc1OC
6. COc1ccc2[nH]c3c(C)cc([N+](=O)[O-])c(C)c3c2c1

Resp:
["0.0291 µM (active)", "> 100 µM (inactive)", "> 100 µM (inactive)", "18.7 µM (inactive)", "> 10 µM (inactive)", "19 µM (inactive)"]

* * *

# System: 786-0
# Run Description: NCI tumour cell line growth inhibition, 48 h
The source made the active and inactive calls. Rule as the data show it: active = GI50 up to about 1.1 µM and inactive = higher.
Observation Type: GI50

These solved cases illustrate the format of a correct answer.
NC(=O)ON=C1CCN(Cc2ccccc2)CC1 :: > 100 µM (inactive)
COc1cccc(/C=C\c2ccnc3ccccc23)c1 :: > 10 µM (inactive)
C=C(Cl)c1c(OC)cccc1OCc1ccccc1 :: > 100 µM (inactive)
N#CCCN(CCCN(C(=O)N(c1ccccc1)c1ccccc1)c1ccccc1)C(=O)Nc1ccccc1 :: > 100 µM (inactive)
CCOC(=O)C(C)(C)Oc1ccc2c(=O)cc(-c3ccccc3)oc2c1 :: 16.3 µM (inactive)
CN(C)CCNc1ccc2ncn3c4ccccc4c(=O)c1c23 :: 2.03 µM (inactive)
C=CCc1c(O)c2ccccc2[nH]c1=O :: > 100 µM (inactive)
CC1C=C(CCCCCCCCCCCC[C@@H](O)[C@@H]2CC[C@@H]([C@@H]3CC[C@@H](C(O)CCCCCCCCCCCCC4=C[C@H](C)OC4=O)O3)O2)C(=O)O1 (some centres undefined) :: > 100 µM (inactive)

I'm hoping you can list GI50 for every molecule here, please.
1. C=CCO/N=C(\OC(=O)c1ccc([N+](=O)[O-])cc1)c1ccccc1
2. CCOC(=O)Oc1cc2c(ccn2C)c2c1c1ccccc1n2C(=O)OCC
3. O=C(NCCN1CCCC1)c1cn2c(ccc3sc4ccccc4c(=O)c32)n1
4. O=C(Nc1ccccc1)c1cc(S(=O)(=O)n2ccnc2O)c(S)cc1Cl
5. O=C(O)C(CS)NCc1c2ccccc2nc2ccccc12 (centres undefined)
6. CSc1nc(SC)c2c(C)c(Br)[nH]c2n1

Resp:
1: > 100 µM (inactive); 2: > 100 µM (inactive); 3: 1.41 µM (inactive); 4: > 100 µM (inactive); 5: 55.2 µM (inactive); 6: > 100 µM (inactive)

Dear reader, for each entry below, please note its GI50.
1. NC(=O)c1ccc(Cl)c([N+](=O)[O-])c1
2. N#Cc1nc(C(F)(F)F)oc1N
3. O=C(NC1CCN(Cc2ccccc2)CC1)c1ccccc1I
4. O=C1/C(=C\c2cccc(Oc3ccccc3)c2)SC(c2ccccc2)N1c1ccc(Cl)cc1 (centres undefined)
5. CC12CCC[C@@](C)(C(=O)OC3OC(CO)C(O)C(O)C3O)[C@H]1CCC13CC4CC(OC4(CO)[C@H]1O)[C@@H]23 (some centres undefined)

Resp:
1: > 100 µM (inactive); 2: > 100 µM (inactive); 3: 26.1 µM (inactive); 4: 52.4 µM (inactive); 5: > 100 µM (inactive)

* * *

# Test system: EKVX
# Run Description: NCI tumour cell line growth inhibition, 48 h
Active and inactive are the calls of the source. Cut-off read from the data, not from the text of the source: active = GI50 up to about 1.1 µM and inactive = higher.
Output constraint: value belongs to y (active), n (inactive)

Some solved entries appear below for comparison.
NC(=O)c1ccc(Cl)c([N+](=O)[O-])c1 :: n
CC1C2(C)OC(=N)C(C#N)(C(c3ccccc3)O2)C1(C#N)C#N (stereo not given) :: n
CN1C(=O)C23CC4=CC=CC(O)C4N2C(=O)C1(CO)SS3 (stereo not given) :: y

Req: I would be grateful if you could indicate the recorded call for O=[N+]([O-])c1nc(-c2ccccn2)[nH]c1[N+](=O)[O-] .
Resp: n

Req: // query: C[N+](C)(C)c1ccc(C(N)C(=O)O)cc1 (stereo not given)
Resp: n
